Data provenance is patent US20180057604A1.

Target: T1, human BACE1 ECD
T1 construct: analyte of the Octet assay (200 nM) and enzyme of the first short substrate assay; also called human BACE1 extracellular domain
T1 sequence (single chain, as listed by the source limits assumed): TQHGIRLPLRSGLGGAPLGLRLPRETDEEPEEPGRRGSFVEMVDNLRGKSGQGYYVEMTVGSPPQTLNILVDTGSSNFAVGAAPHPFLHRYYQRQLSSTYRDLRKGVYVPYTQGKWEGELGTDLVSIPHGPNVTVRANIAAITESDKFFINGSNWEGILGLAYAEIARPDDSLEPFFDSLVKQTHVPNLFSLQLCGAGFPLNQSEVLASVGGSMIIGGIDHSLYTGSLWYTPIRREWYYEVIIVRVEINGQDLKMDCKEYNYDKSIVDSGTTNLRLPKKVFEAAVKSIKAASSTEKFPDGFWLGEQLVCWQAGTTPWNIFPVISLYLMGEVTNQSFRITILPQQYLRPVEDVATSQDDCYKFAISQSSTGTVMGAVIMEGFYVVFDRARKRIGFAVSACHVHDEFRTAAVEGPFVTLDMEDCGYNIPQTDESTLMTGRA
Experiment: Octet, pH 5.0;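 also: antibodies captured on anti-human capture sensor tips, dissociation monitored in PBS with BSA buffer, kinetics fitted with a one-to-one binding model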
parameterMeasured: Kd

# Kd of 6275 (antibody, V domains shown, anti-BACE1 IgG) VH: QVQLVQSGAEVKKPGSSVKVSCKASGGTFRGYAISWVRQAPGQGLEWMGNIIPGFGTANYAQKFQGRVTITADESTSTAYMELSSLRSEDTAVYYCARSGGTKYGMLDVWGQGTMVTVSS VL: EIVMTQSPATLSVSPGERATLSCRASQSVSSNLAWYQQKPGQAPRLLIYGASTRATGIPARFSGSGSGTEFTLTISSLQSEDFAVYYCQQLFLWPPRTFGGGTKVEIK = < 0.34 nM
